These measurements were taken from FireProtDB (doi:10.1110/ps.03176803).

B1: Guanyl-specific ribonuclease Sa, P05798 (parent)
chain: DVSGTVCLSALPPEATDTLNLIASDGPFPYSQDGVVFQNRESVLPTQSYGYYHEYTVITPGARTRGTRRIITGEATQEDYYTGDHYATFSLIDQTC

Variants of: B1
Measurement Context: Kitasatospora aureofaciens; pH 7; Thermal; DSC; PIPES 0.03 M; reversible: yes (90-95%); structure 1RGG; whole UniProt chain shown
So basically, if Tm comes in under 50 °C it's T, and if it's 50 °C or more it's F.

Would you please look over these solved cases?
[
  {
    "Seq": "DVSGTVCLSALPPEATDTLNLIASDGPFPYSQDGVVFANRESVLPTQSYGYYHEYTVITPGARTRGTRRIITGEATQEDYYTGDHYATFSLIDQTC [Q38A]",
    "Class Assignment": "F"
  },
  {
    "Seq": "DVSGTVCLSALPPEATDTLNLIASDGPFPYSQDGVVFQNRESVLPTQSYGYYHQYTVITPGARTRGTRRIITGEATQEDYYTGDHYATFSLIDQTC [E54Q]",
    "Class Assignment": "T"
  },
  {
    "Seq": "DVSGTVCLSALPPEATDTLNLIASDGPFPYSQDGVVFQNRESVLPTQSYGYYHEYTVITPGARTAGTRRIITGEATQEDYYTGDHYATFSLIDQTC [R65A]",
    "Class Assignment": "T"
  }
]

// switching to the query variant
Does the reported Tm of DVSGTVCLSALPPEATDTLNLIASDGPFPYSQDGVVFQNRKSVLPTQSYGYYHEYTVITPGARTRGTRRIITGEATQEDYYTGDHYATFSLIDQTC [E41K] stay below 50 °C?
T
